Target: Oxysterol-binding protein 1 (Homo sapiens, UniProt P22059)
Sequence (P22059 whole entry): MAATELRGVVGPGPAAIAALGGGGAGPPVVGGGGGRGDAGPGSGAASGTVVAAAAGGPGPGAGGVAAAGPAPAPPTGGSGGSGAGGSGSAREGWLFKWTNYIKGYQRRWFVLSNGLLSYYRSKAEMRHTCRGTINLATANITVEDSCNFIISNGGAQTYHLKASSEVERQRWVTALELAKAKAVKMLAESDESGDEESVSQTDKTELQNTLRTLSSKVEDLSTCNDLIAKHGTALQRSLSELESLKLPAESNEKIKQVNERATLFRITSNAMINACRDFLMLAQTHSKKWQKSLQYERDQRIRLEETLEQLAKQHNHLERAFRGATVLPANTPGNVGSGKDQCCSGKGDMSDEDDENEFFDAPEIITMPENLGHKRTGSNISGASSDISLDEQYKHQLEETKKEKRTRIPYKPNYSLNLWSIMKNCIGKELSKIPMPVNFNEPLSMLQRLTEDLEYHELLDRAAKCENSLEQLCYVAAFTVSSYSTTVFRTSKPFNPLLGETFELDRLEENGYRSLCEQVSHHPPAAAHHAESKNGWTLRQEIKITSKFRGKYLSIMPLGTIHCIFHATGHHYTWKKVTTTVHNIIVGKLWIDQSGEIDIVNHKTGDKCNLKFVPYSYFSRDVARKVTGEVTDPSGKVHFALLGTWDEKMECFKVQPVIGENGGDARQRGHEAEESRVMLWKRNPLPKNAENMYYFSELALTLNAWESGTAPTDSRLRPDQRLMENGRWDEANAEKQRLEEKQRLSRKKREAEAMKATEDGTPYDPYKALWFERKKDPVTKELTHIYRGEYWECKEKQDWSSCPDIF
Test: Displacement of [3H]-25-OHC from human OSBP overexpressed in HEK293T cell lysate assessed as inhibition constant by competitive binding assay
attribute-measured: Ki (µM)
Entry rule: numbers only, all in µM.

Per the record, CCCCC[C@](C)(O)[C@H]1CC[C@H]2[C@@H]3CC=C4C[C@@H](O)CC[C@]4(C)[C@H]3CC[C@@]21C has Ki of 0.6

Per the record, CC(C)CC[C@](C)(O)[C@H]1CC[C@H]2[C@@H]3CC=C4C[C@@H](O)CC[C@]4(C)[C@H]3CC[C@@]21C has Ki of 1.3

Per the record, CC(C)CCC[C@](C)(O)[C@H]1CC[C@H]2[C@@H]3CC=C4C[C@@H](O)CC[C@]4(C)[C@H]3CC[C@@]21C has Ki of 0.13

###

attribute-measured: Kd (nM)
Entry rule: numbers only, all in nM.

Record for C[C@H](CCCC(C)(C)O)[C@H]1CC[C@H]2[C@@H]3CC=C4C[C@@H](O)CC[C@]4(C)[C@H]3CC[C@]12C under target or system Oxysterol-binding protein 1 (Homo sapiens, UniProt P22059): Kd reported as 22

###

Molecular target: Oxysterol-binding protein 2 (Homo sapiens, UniProt Q969R2)
Sequence (Q969R2 whole entry): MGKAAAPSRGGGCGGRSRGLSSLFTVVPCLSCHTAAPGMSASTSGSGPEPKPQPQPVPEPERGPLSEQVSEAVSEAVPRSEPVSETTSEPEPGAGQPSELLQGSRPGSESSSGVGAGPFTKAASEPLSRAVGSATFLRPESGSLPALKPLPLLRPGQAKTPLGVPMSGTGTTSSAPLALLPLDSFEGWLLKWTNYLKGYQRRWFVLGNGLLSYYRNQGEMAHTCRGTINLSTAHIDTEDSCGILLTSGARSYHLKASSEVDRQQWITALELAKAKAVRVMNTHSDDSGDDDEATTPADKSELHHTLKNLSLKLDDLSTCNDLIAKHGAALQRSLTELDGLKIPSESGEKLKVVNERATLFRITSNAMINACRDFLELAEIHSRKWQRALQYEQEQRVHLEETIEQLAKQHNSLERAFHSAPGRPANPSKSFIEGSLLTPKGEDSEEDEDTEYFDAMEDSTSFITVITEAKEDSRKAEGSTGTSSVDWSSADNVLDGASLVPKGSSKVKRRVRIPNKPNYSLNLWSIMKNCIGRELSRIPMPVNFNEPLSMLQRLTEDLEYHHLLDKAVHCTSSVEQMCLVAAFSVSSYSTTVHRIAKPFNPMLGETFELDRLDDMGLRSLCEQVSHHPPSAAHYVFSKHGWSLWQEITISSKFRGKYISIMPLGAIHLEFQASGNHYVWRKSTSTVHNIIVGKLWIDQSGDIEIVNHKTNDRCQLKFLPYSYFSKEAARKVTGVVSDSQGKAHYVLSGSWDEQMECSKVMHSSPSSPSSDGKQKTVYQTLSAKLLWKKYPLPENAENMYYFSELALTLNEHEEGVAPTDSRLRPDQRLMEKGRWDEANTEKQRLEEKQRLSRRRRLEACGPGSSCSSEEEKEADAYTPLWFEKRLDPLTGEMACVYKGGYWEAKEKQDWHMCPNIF
Assay: Displacement of [3H]-25-OHC from human ORP4 overexpressed in HEK293T cell lysate assessed as inhibition constant by competitive binding assay
Assay type: subcellular
pKi: −log10 of the molar value.
attribute-measured: pKi

Per the record, CCCCCCCC[C@](C)(O)[C@H]1CC[C@H]2[C@@H]3CC=C4C[C@@H](O)CC[C@]4(C)[C@H]3CC[C@@]21C has pKi of < 4.70

Per the record, C[C@]12CC[C@H](O)CC1=CC[C@@H]1[C@@H]2CC[C@]2(C)C([C@H](O)CO)=CC[C@@H]12 has pKi of < 4.30

Per the record, CCCCCCCC[C@@](C)(O)[C@H]1CC[C@H]2[C@@H]3CC=C4C[C@@H](O)CC[C@]4(C)[C@H]3CC[C@@]21C has pKi of < 4.00

Per the record, C[C@@H](CO)CCC[C@@H](C)[C@H]1CC[C@H]2[C@@H]3CC=C4C[C@@H](O)CC[C@]4(C)[C@H]3CC[C@]12C has pKi of < 6.00

Per the record, CC(C)CCC[C@](C)(O)[C@H]1CC[C@H]2[C@@H]3CC=C4C[C@@H](O)CC[C@]4(C)[C@H]3CC[C@@]21C has pKi of 6.49
